Tested on: K. pneumoniae ATCC MS6671
Format: cell-based, Klebsiella pneumoniae
ASSAY_SETUP: median of triplicate
Positions of bridges follow the written chain, without caps; N, C: chain ends. Non-standard residues stand in square brackets, D forms with d. Residues, ends and D or L forms follow the SMILES beside them. *: point of attachment. Ethyl(2-OBz) = O=C(OCC*)c1ccccc1; Octanoyl = CCCCCCCC(=O)*; Dab = NCC[C@H](N)C(=O)O
MIC K. pneumoniae ATCC MS6671 values by entry

molecule="CC(C)C[C@@H]1NC(=O)[C@@H](Cc2ccccc2)NC(=O)[C@H](CCN)NC(=O)[C@@H](NC(=O)[C@H](CCN)NC(=O)[C@@H](NC(=O)[C@H](CCN)NC(=O)[C@@H](N)CSCCOC(=O)c2ccccc2)[C@@H](C)O)CCCCNC(=O)[C@H]([C@@H](C)O)NC(=O)[C@H](CCN)NC(=O)[C@H](CCN)NC1=O [Compound 27] (H-C(Ethyl(2-OBz))[Dab]T[Dab]K[Dab][dF]L[Dab][Dab]T; lactam 5-C)" measured_result=">32 µg/mL"
molecule="CCCCCCCC(=O)N[C@@H](CSCCOC(=O)c1ccccc1)C(=O)N[C@@H](CCN)C(=O)N[C@H](C(=O)N[C@@H](CCN)C(=O)N[C@H]1CCNC(=O)[C@H]([C@@H](C)O)NC(=O)[C@H](CCN)NC(=O)[C@H](CCN)NC(=O)[C@H](CSCCOC(=O)c2ccccc2)NC(=O)[C@@H](Cc2ccccc2)NC(=O)[C@H](CCN)NC1=O)[C@@H](C)O [Compound 51] (Octanoyl-C(Ethyl(2-OBz))[Dab]T[Dab][Dab][Dab][dF]C(Ethyl(2-OBz))[Dab][Dab]T; lactam 5-C)" measured_result=">32 µg/mL"

--- query ---
Recorded result, CC(C)C[C@@H]1NC(=O)[C@@H](Cc2ccccc2)NC(=O)[C@H](CCN)NC(=O)[C@@H](NC(=O)[C@H](CCN)NC(=O)[C@@H](NC(=O)[C@H](CCN)NC(=O)[C@@H](N)CSCCOC(=O)c2ccccc2)[C@@H](C)O)CCNC(=O)[C@H]([C@@H](C)O)NC(=O)[C@H](CCN)NC(=O)[C@H](CCN)NC1=O [Compound 33] (H-C(Ethyl(2-OBz))[Dab]T[Dab][Dab][Dab][dF]L[Dab][Dab]T; lactam 5-C) , MIC K. pneumoniae ATCC MS6671: >32 µg/mL
